# maps each entry to its melting point

Please review the entries below; each comes with its answer.
>>> df
                                   compound  readout_value
0  COc1ccc(C2(C34CC5CC(CC(C5)C3)C4)N=C(N)N(C)C2=O)cc1OC (stereo not given)         130 °C
1    CC(C)S(=O)(=O)c1ccc(S(=O)(=O)C(C)C)nc1         181 °C
2  CC(=O)NCC1CC1c1c(-c2cccnc2)ccc2nn(C)cc12 (stereo not given)  136 to 138 °C
3  CNc1nc(-c2cc3cccc(N(C)S(=O)(=O)c4cccs4)c3[nH]2)cs1  162 to 163 °C
4      COc1ccc(COc2ccc([N+](=O)[O-])cc2)cc1  122 to 124 °C

melting point in this record for O=C(O)c1cc(NCc2ccccc2)c(-c2ccccc2)c([N+](=O)[O-])c1 : 188 to 189 °C

melting point in this record for CCC(C)Oc1nc(N)nc2c1ncn2C1C=CC(CO)C1 (stereo not given) : 159 to 161 °C

---

Reported endpoint: melting point

Please review the entries below; each comes with its answer.
In [3]: df
Out[3]:
                                   compound  reported_endpoint  readout_value
0  O=C(O)C1Cc2cccc([N+](=O)[O-])c2C1 (stereo not given)      melting point         140 °C
1  CCN(CC)CCNc1ccc(C)c2sc3ccc(OC)cc3c(=O)c12      melting point    81 to 82 °C
2  Cc1nccn1CC(C)C(=O)c1cn(C)c2ccccc12 (stereo not given)      melting point  205 to 207 °C
3  CCCCCCCCCCCCCCCCCCOc1cn(-c2ccccc2)c(CO)cc1=O      melting point    67 to 72 °C
4                Cc1c2n(c(=O)[nH]c1=O)CCCS2      melting point  196 to 198 °C

melting point in this record for O=C(O)c1cc(C(c2cc(F)ccc2F)S(=O)(=O)c2ccc(Cl)cc2)c(Cl)cn1 (stereo not given) : 94 to 96 °C

melting point in this record for O=C(O)Cc1ccc(NC(=O)C(Cn2ccnc2)NS(=O)(=O)c2ccc(F)cc2)cc1 (racemic) : 162 to 165 °C

melting point in this record for Cc1cc(C#C[Si](C)(C)C)ccc1-n1c(C(F)(F)F)nn(C)c1=S : 90 to 93 °C

melting point in this record for CCOC(=O)Cn1c2cccccc-2c(C(C)=O)c1=O : 162 to 165 °C

---

# maps each entry to its melting point

Please review the entries below; each comes with its answer.
>>> df
                                   molecule  readout_value
0  Nc1nc(-c2ccc(CCN3CCN(c4cccc(C(F)(F)F)c4)CC3)cc2)cs1  274 to 277 °C
1  COc1cc(N2CCN(C(=O)Cn3nc(C#N)c4cccnc43)CC2)ccc1Cl  183 to 185 °C
2  COc1ccc(-c2nc(C)c(C(=O)Nc3nnn[nH]3)s2)cc1  275 to 278 °C

melting point in this record for Cn1nc(N)nc1NCCCOc1cccc(CN2C(=O)c3ccccc3C2=O)c1 : 55 to 57 °C

melting point in this record for Cc1ccc(C(=O)NC(CC(C)C)C(=O)O)c(SSc2cc(C)ccc2C(=O)NC(CC(C)C)C(=O)O)c1 (stereo not given) : 216 to 218 °C
